tgt: ATM (Homo sapiens (Human))
Sequence (Q13315 whole entry): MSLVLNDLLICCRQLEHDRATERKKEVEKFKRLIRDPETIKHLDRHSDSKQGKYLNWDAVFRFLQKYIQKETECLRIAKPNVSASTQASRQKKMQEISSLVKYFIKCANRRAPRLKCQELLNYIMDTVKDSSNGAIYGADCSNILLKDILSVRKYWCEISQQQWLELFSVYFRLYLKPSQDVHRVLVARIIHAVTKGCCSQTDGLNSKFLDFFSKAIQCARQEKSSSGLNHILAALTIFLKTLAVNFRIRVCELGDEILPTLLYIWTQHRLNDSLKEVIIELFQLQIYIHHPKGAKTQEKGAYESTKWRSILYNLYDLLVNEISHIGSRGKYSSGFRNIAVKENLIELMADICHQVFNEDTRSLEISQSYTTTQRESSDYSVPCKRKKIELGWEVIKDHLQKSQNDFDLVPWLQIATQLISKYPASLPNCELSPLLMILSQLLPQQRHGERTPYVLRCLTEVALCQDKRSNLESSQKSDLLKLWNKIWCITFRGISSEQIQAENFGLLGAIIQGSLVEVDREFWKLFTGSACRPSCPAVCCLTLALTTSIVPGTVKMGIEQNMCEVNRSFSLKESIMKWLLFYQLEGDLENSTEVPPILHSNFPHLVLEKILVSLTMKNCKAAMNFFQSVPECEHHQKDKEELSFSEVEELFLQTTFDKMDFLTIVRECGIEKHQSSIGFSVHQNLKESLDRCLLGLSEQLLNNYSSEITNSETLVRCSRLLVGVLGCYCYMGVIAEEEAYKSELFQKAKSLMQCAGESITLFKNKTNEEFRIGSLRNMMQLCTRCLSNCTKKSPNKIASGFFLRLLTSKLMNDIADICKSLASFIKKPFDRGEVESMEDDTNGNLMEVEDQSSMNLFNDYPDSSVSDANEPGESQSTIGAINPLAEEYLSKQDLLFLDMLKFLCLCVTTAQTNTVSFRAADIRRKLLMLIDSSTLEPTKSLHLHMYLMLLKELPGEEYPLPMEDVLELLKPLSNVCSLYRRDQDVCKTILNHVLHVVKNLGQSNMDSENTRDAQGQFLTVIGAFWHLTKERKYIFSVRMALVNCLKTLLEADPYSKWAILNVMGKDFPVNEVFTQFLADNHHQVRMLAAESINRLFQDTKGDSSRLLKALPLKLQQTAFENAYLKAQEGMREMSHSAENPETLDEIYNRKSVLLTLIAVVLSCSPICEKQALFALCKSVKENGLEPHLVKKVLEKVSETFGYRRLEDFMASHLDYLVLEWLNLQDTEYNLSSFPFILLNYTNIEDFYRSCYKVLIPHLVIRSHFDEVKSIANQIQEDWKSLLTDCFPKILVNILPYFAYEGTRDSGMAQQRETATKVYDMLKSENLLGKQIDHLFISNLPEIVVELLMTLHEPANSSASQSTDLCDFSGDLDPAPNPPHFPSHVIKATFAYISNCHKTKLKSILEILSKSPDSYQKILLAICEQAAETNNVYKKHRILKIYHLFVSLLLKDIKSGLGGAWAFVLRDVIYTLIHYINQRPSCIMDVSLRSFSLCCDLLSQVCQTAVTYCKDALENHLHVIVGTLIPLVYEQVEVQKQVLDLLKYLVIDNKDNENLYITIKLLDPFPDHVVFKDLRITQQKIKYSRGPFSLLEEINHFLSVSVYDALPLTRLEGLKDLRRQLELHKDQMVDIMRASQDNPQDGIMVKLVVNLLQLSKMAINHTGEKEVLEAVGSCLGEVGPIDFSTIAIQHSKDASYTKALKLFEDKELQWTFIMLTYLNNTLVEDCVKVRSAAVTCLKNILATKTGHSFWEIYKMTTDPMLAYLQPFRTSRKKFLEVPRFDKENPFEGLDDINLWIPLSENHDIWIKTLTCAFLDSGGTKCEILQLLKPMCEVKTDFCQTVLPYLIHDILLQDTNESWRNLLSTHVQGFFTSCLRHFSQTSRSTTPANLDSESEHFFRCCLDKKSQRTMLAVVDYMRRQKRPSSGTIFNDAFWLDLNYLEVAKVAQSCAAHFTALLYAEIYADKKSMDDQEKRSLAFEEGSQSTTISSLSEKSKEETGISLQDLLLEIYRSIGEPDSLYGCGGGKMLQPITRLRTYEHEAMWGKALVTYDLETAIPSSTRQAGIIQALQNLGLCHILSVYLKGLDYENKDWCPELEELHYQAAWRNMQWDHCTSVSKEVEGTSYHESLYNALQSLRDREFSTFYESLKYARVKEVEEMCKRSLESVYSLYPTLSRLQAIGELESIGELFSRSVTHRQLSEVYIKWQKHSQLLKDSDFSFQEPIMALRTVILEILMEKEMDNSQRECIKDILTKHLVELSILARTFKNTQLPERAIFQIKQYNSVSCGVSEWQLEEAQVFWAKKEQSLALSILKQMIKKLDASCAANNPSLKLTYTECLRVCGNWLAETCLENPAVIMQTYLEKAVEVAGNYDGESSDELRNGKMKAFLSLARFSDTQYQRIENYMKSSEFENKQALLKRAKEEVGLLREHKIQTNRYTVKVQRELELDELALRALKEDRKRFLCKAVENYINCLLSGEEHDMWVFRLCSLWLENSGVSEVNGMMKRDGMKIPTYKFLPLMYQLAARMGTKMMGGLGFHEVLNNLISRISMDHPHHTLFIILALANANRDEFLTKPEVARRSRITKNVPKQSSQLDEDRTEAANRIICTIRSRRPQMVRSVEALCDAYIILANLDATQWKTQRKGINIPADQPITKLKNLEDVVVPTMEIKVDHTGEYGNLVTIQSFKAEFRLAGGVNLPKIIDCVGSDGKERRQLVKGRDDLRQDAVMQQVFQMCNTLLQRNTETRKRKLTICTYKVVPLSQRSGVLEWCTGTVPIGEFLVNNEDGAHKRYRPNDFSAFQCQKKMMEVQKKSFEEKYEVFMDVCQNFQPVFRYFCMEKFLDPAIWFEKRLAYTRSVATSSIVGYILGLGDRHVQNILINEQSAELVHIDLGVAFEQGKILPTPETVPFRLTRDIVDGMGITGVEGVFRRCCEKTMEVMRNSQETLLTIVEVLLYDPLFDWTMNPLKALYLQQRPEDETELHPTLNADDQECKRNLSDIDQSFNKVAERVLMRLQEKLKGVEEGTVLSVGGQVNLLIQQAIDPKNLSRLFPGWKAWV
protocol.summary: ATM in Cell Western Assay (pKAP1 in etoposide-treated MCF-7 cells)
Format: cell-based
run.parameters: pKAP1 in etoposide-treated MCF-7 cells
pIC50: −log10 of the molar value. Where a name gives a salt, the structure may show the parent alone.
The following molecules are shown together with reported pIC50 values.

Use these answered entries as a reference point.
Write down the reported pIC50 of `CCCCN1CC2(C1)C(=O)N(C)c1cnc3cc(F)c(-c4cnc(OCCNC(C)C)c(NS(C)(=O)=O)c4)cc3c12` , test system: ATM (Homo sapiens (Human)).
7.00 to 9.00

Write down the reported pIC50 of CN1CC2(C1)CN(c1ncc(-c3ccc4ncc5c(c4c3)C3(CCC3)C(=O)N5C)cc1NS(C)(=O)=O)C2 [Example 345, formate] , test system: ATM (Homo sapiens (Human)).
7.00 to 9.00

***
Write down the reported pIC50 of CC(C)NCCOc1ncc(-c2cc3c(cc2F)ncc2c3[C@]3(C[C@@H](N4CCCCC4)C3)C(=O)N2C)cc1NS(C)(=O)=O [Example 470, hydrochloride] , test system: ATM (Homo sapiens (Human)).
7.00 to 9.00

Write down the reported pIC50 of `CC(C)NCCOc1ncc(-c2cc3c4c(cnc3cc2F)N(C)C(=O)C42CN(c3cccc(C(F)(F)F)c3)C2)cc1NS(C)(=O)=O` , test system: ATM (Homo sapiens (Human)).
7.00 to 9.00

Write down the reported pIC50 of CN1C(=O)C2(CCC2)c2c1cnc1ccc(-c3cnc(N4CCC(N5CCCCC5)C4)c(NS(C)(=O)=O)c3)cc21 (racemic) [Example 352, hydrochloride] , test system: ATM (Homo sapiens (Human)).
7.00 to 9.00

Write down the reported pIC50 of `CO[C@H]1C[C@]2(C1)C(=O)N(C)c1cnc3cc(F)c(-c4cnc(N5CCC(N6CCCCC6)CC5)c(NS(C)(=O)=O)c4)cc3c12` , test system: ATM (Homo sapiens (Human)).
7.00 to 9.00

Write down the reported pIC50 of `COc1cccc(N2CC3(C2)C(=O)N(C)c2cnc4cc(F)c(-c5cnc(OCCNC(C)C)c(NS(C)(=O)=O)c5)cc4c23)c1` , test system: ATM (Homo sapiens (Human)).
7.00 to 9.00

Write down the reported pIC50 of `CN(C)CCCOc1c(NS(C)(=O)=O)cc(-c2ccc3ncc4c(c3c2)C2(CCC2)C(=O)N4C)cc1C(N)=O` , test system: ATM (Homo sapiens (Human)).
7.00 to 9.00

Write down the reported pIC50 of CC(C)NCCOc1ncc(-c2cc3c(cc2F)ncc2c3[C@]3(C[C@@H](OC(C)c4ccccc4)C3)C(=O)N2C)cc1NS(C)(=O)=O (stereo partly shown) , test system: ATM (Homo sapiens (Human)).
< 7.00

###

The following compounds are shown together with reported IC50 values.
tgt: DNA-PK (Homo sapiens (Human), UniProt P78527)
protocol.summary: DNA-PK Enzyme-Linked Immunosorbent Assay (phosphorylation of GST-p53 (1-101) peptide)
Format: biochemical
run.parameters: ELISA, 20 μM ATP
Method: Assay of Compounds ATM and DNA-PK Inhibition remove wash solution, turn plate upside down onto a thin paper towel and centrifuge at 1000 rpm for 1 min to absorb all wash buffer. Clean the bottom of plate with moist lint free paper. […] On day one, coat 96-well plate (ThermoFisher. Cat #: 442404) with GST-p53 (1-101) peptide (purified by Pharmaron, BCS department) by diluting 3 μg of GST-p53 each well with 0.1 M Na2CO3/NaHCO3, pH 9.6. […] Read the plate at 450 nm to detect absorption.
Counter-ions that a name gives are not always drawn.

I'd like to know its IC50. The compound in question is Cc1ccc(N2CC3(C2)C(=O)N(C)c2cnc4cc(F)c(-c5cnc(OCCNC(C)C)c(NS(C)(=O)=O)c5)cc4c23)cc1 [Example 526, hydrochloride]
< 0.5 nM

I'd like to know its IC50. The compound in question is CC(C)NCCOc1ncc(-c2cc3c(cc2F)ncc2c3[C@]3(C[C@@H](c4ccncc4)C3)C(=O)N2C)cc1NS(C)(=O)=O [Example 439]
1 to 100 nM
